System: HCT-116 colon
Assay: NCI-60 one-dose screen, 48 h (100 = growth as untreated, 0 = no growth, -100 = all killed)
Conditions: 10 µM unless noted
Compounds without any hit were thinned out: in the full panel of roughly 83,000, 20% have a hit.
Parameter: growth (%)

| Compound | Parameter | Number |
| --- | --- | --- |
| Nc1cc(F)ccc1[N+](=O)[O-] | growth | 97.9 |
| CNc1ccccc1C(=O)N/N=C/C=C/c1ccccc1 | growth | 21.6 |
| CC(C)c1ccc(C(=O)OCCCl)cc1 | growth | 82.4 |
| COc1ccc2c(c1)Nc1ccccc1S2 | growth | 105 |
| O=C(O)CCCCCNC(=O)OCc1ccccc1 | growth | 92.9 |
| CS(=O)(=O)c1ccc(/C=C\C(=O)O)cc1 | growth | 93.7 |
| O=S1(=O)c2ccccc2Oc2ccccc21 | growth | 102 |
| CCCCNC(=O)c1ccc(OCC)cc1 | growth | 90.5 |
| Clc1ccc(-c2noc(/C=C\c3ccccc3)n2)cc1 | growth | 102 |
| CC1CC(C)S(=O)(=O)C1 (stereo unspecified) | growth | 114 |
| CCCC(=O)CC(=O)c1ccccc1 | growth | 94.8 |

====

System: SN12C renal
Assay: NCI-60 one-dose screen, 48 h
Conditions: 10 µM unless noted
This is part of a sample that, as a whole, favours compounds with a hit. Of some 83,000 tested, about 20% had one in any assay. Activity calls are given as the source filed them. The calls were made as follows: active = growth percent below 10; inactive = the rest.
Outcomes: TRUE (active), FALSE (inactive)

| Molecule | Group Label |
| --- | --- |
| CC(=O)C1C(=O)C(=O)N(c2ccc(Cl)c(Cl)c2)C1=O (configuration not stated) | FALSE |
| CC(C)N(CCCC#N)C(C)C | FALSE |
| COc1ccc(C(=O)/C(=N/Nc2ccccc2)c2ccc(OC)cc2)cc1 | FALSE |
| CN(C)CCOC(=O)Nc1ccc(Cc2ccc(NC(=O)OCCN(C)C)cc2)cc1 | FALSE |
| CC(=O)C[n+]1ccc(C)cc1Sc1ccccc1C | FALSE |
| Cc1c(-c2ccc(C3CCCCC3)cc2)nc2ccc(F)cc2c1C(=O)O | FALSE |
| CC(=O)CSc1ncnc2nc[nH]c12 | FALSE |
| CCCCCCCCCCCCCCCCCCSC(=N)N | FALSE |
| CCOC(=O)CNC(=O)Sc1ccc(C(C)(C)C)cc1 | FALSE |
| CNc1ccccc1C(=O)N/N=C/C=C/c1ccccc1 | FALSE |
| NCCCN1CCCC1=O | FALSE |
| O=C(NCc1ccco1)Nc1cccc2c(NC(=O)NCc3ccco3)cccc12 | FALSE |
| COc1ccc2c(Cl)cc(NC(=O)Nc3c(C)cccc3C)nc2c1 | FALSE |
| Cc1ccc(Cc2ccc(C)cc2)cc1 | FALSE |
| O=C(N/N=C\c1ccc(Cl)cc1Cl)c1ccncc1 | FALSE |
| COc1ccc(/C=C\C(=O)/C=C/c2ccc(OC)cc2)cc1 | FALSE |
| Cc1ccccc1CC(N)C(=O)O (configuration not stated) | FALSE |
| C#CCSc1nnnn1-c1ccccc1 | FALSE |
| CC(=O)Nc1ccc(O)c(C)c1 | FALSE |
| COc1ccc(NNS(=O)(=O)O)cc1 | FALSE |
| S=C(Sc1ccc(Cl)cc1)Sc1ccc(Cl)cc1 | TRUE |
| CC(=O)OCC1OC(n2cnc3c(=S)nc(N)[nH]c32)C(OC(C)=O)C1OC(C)=O (configuration not stated) | FALSE |
| C=CCC(OC(C)=O)c1ccc(OC)c(OC)c1 (configuration not stated) | FALSE |
| CC(CO)(CO)C(=O)O | FALSE |
| C/C(=N\N=C(/C)c1cccc([N+](=O)[O-])c1)c1cccc([N+](=O)[O-])c1 | FALSE |
| CCOc1ccc(NC(=S)N2CCC(CCCC3CCN(C(=S)Nc4ccc(OCC)cc4)CC3)CC2)cc1 | FALSE |
| OCCc1ccc(Cl)cc1 | FALSE |
| CCOC(C=O)OCC | FALSE |
| Cc1cc(CC(=O)NCCO)n(CCO)c(=O)c1 | FALSE |
| CSc1cnc2ccccc2n1 | FALSE |
| CCCCCCCCCCCCCCCCOc1ccccc1NC(=O)CC(C)=O | FALSE |
| CN=S(=O)(OCCCCCOS(=O)(=NC)c1ccc(C)cc1)c1ccc(C)cc1 (configuration not stated) | FALSE |

====

Test system: OVCAR-5 ovarian
Experiment: NCI-60 one-dose screen, 48 h (100 = growth as untreated, 0 = no growth, -100 = all killed)
Settings: 10 µM unless noted
Compounds without any hit were thinned out: in the full panel of roughly 83,000, 20% have a hit.

| Compound | growth, % |
| --- | --- |
| O=[N+]([O-])c1ccc2[nH]c(=S)n(/C=C(/c3ccc(Cl)cc3Cl)S(=O)(=O)Cc3ccc(Cl)cc3Cl)c2c1 | 108 |
| CCN(CC)CCN1CNC(=S)NC1 | 107 |
| CC(=O)O[C@H]1CC[C@]2(C)C3=C(C(=O)C[C@H]2C1(C)C)[C@]1(C)CC[C@H]([C@H](C)CCC(=O)O)[C@@]1(C)CC3=O | 100 |
| ON1CCCC1 | 103 |
| CCCC(=O)CC(=O)c1ccccc1 | 101 |
| Cn1c(=O)[nH]c2ccccc2c1=O | 123 |
| COc1ccc(/C=C\C(=O)/C=C/c2ccc(OC)cc2)cc1 | 107 |
| Oc1cccnc1CN1CCCC1 | 97.9 |
| N#C/C(=C\NC(=S)N=Nc1c(O)[nH]c2ccccc12)c1nc2ccccc2s1 | 105 |
| CN(C)c1ccc(O)c2c1CC1CC3C(N(C)C)C(=O)C(C(N)=O)=C(O)C3(O)C(=O)C1=C2O (configuration not stated) | 63.4 |
| Cc1ccc(C)c2c1CCC2=O | 95.8 |
| O=C(CCl)Oc1ccc([N+](=O)[O-])cc1 | 107 |
| C/C(=N\Nc1ccc([N+](=O)[O-])cc1[N+](=O)[O-])c1ccc(Br)cc1 | 123 |
| ClCc1cccc2c(CCl)cccc12 | 114 |
| CCC(/C=C\C(C)=O)CC | 104 |
| CCOC(=O)C(=O)CC(=O)c1ccccc1 | 95.1 |
| CCOC(=O)c1cc(Cl)c(O)c(Cl)c1 | 108 |
| CCN1CCCC(N2c3ccccc3Sc3ccccc32)C1 (configuration not stated) | 106 |
| C/C(Cc1ccccc1)=N\O | 107 |
| C/C(=N\N=C(/C)c1cccc([N+](=O)[O-])c1)c1cccc([N+](=O)[O-])c1 | 97.9 |
| Clc1cccc(Cl)c1CSc1nc2ccccc2n2cccc12 | 106 |
| COc1nc(Nc2cccc(C(F)(F)F)c2)nc(OC)n1 | 116 |
| CCCCCCCCCCCCSC1=C(Cl)C(=O)C(OC)=C(OC)C1=O | 80 |
| C=C(c1ccc(N(C)C)cc1)c1ccc(N(C)C)cc1 | 16 |
| CC1CN(CCO)CC(C)O1 (configuration not stated) | 93.1 |
| C=CCS(C)(=O)=O | 101 |
| S=c1nc2[nH]c3ccccc3c2n[nH]1 | 93.6 |

====

Test system: SNB-19 CNS
Experiment: NCI-60 one-dose screen, 48 h (100 = growth as untreated, 0 = no growth, -100 = all killed)
Conditions: 10 µM unless noted
About 83,000 compounds went through this panel and 20% of them were active in at least one assay; those are over-represented in the sample as a whole.
List of growth values.

| Compound | growth, % |
| --- | --- |
| O=C(OCC1CCCO1)c1ccc([N+](=O)[O-])cc1 (centres undefined) | 102 |
| c1ccc(Nc2ccccn2)nc1 | 97.5 |
| CCOC(=O)c1ccc(Nc2sc(C(=O)c3ccc(Br)cc3)c(N)c2C#N)cc1 | 62.5 |
| O=C(NCc1ccccc1)c1cccc([N+](=O)[O-])c1 | 95.1 |
| S=c1nc2[nH]c3ccccc3c2n[nH]1 | 83.3 |
| NNC(=O)N/N=C1\C(=O)N(c2nccs2)C(=O)C(=O)C1c1nc2ccccc2s1 (centres undefined) | 101 |
| NNc1ncnc2nc[nH]c12 | 96 |
| NC(CO)(CO)c1ccccc1 | 107 |
| C=COC(=O)CCOCC(CC)CCCC (centres undefined) | 104 |

====

System: A498 renal
Assay: NCI-60 one-dose screen, 48 h (100 = growth as untreated, 0 = no growth, -100 = all killed)
Settings: 10 µM unless noted
This is part of a sample that, as a whole, favours compounds with a hit. Of some 83,000 tested, about 20% had one in any assay.
List of growth values.
Parameter: growth (%)

| Molecule | Units Text | Number |
| --- | --- | --- |
| ClCc1cccc2c(CCl)cccc12 | % | 107 |
| c1ccc(-c2ccc3ccccc3c2)cc1 | % | 84 |
| CC(C)(CC(=O)O)CC(=O)O | % | 93.7 |
| COc1nc(Nc2cccc(C(F)(F)F)c2)nc(OC)n1 | % | 85.3 |
| CC(=O)NCNC(C)=O | % | 113 |
| Clc1cccc(Cl)c1C1CSc2ccccc2N=C1c1ccccc1 (stereo unspecified) | % | 124 |
| O=C(O)c1ccc([N+](=O)[O-])cc1S(=O)(=O)O | % | 108 |
| CCOC(=O)/C(C#N)=C\c1c[nH]c2ccccc12 | % | 153 |
| CC(=O)C1C(=O)C(=O)N(c2ccc(Cl)c(Cl)c2)C1=O (stereo unspecified) | % | 118 |
| CCCCCCCCCCCCCC/C=C\C(CC(=O)O)C(=O)O (stereo unspecified) | % | 95.2 |
| COC1OC(C(O)C(O)CO)C(O)C(O)C1O (stereo unspecified) | % | 107 |
| Cc1ccc(S(=O)(=O)NC(=O)NCCSSCCNC(=O)NS(=O)(=O)c2ccc(C)cc2)cc1 | % | 93.1 |
| CCN(CC)CCN1CNC(=S)NC1 | % | 105 |
| O=[N+]([O-])c1c(O)c(CNCCCO)cc(CNCCCO)c1O | % | 130 |
| NNC(=O)c1ccccc1N | % | 140 |
| CC(C)N(C(=O)c1ccccc1)C(C)C | % | 86.6 |
| Cc1cc2nc(C)c(C)nc2cc1C | % | 114 |
| C=CCN1CCCC1=O | % | 91 |
| COC(CCCl)c1ccc(Cl)cc1 (stereo unspecified) | % | 109 |
| CCCCOC(=O)c1ccc(NC(=O)CCl)cc1 | % | 99.2 |
| CN(C)c1ccc2c(N(C)C)cc(N(C)C)nc2c1 | % | 78.9 |
| CN1CCN(C(=S)S)CC1 | % | 118 |
| O=C(c1ccc(Cl)cc1)N1CCCCC1 | % | 73.3 |
| CC(=O)c1cccc(O)c1 | % | 38.3 |
| CCOC(=O)CNC(=O)Sc1ccc(C(C)(C)C)cc1 | % | 119 |
| O=C(NCCc1ccccc1)/C(=C\c1ccc(Cl)cc1Cl)NC(=O)c1ccccc1 | % | 87.5 |
| CCCC1OC(c2ccco2)OCC1CC (stereo unspecified) | % | 94.6 |
| COc1ccc(C2CC(c3ccccc3)=Nc3ccccc3S2)cc1 (stereo unspecified) | % | 91.8 |
| Cc1ccc(O)c(N)c1 | % | 127 |
| Cc1ccc([N+](=O)[O-])c(C)n1 | % | 79.8 |
| Cc1cc(=O)n(Nc2ccccc2)c(O)c1C#N | % | 115 |
| CC(=O)C1C(=O)C(=O)N(c2cccc([N+](=O)[O-])c2)C1=O (stereo unspecified) | % | 79.2 |
| Nc1cc(N)ncn1 | % | 93.8 |
| CCN(CC)CCCC(C)NC(=S)N/N=C(\C)c1ccccn1 (stereo unspecified) | % | 72.1 |
| NCC(O)C(O)C(O)C(O)CO (stereo unspecified) | % | 98.6 |
| O=C(CCCl)OCCOc1ccccc1 | % | 89 |
